molecular target: human GABAρ1 (Homo sapiens); construct: expressed in transfected cells; host or cells: Xenopus laevis oocytes injected with in vitro transcribed mRNA; assay: Inhibition of GABA currents by co-application of 3 µM GABA and analogue, two-microelectrode voltage clamp in X. laevis oocytes; format: cell-based;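 further: oocytes expressing human GABAρ1 from injected mRNA, recorded 1–5 days later, clamped at −60 mV, room temperature, compounds bath-applied at pH 7.4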
Sequence (P24046 22-479): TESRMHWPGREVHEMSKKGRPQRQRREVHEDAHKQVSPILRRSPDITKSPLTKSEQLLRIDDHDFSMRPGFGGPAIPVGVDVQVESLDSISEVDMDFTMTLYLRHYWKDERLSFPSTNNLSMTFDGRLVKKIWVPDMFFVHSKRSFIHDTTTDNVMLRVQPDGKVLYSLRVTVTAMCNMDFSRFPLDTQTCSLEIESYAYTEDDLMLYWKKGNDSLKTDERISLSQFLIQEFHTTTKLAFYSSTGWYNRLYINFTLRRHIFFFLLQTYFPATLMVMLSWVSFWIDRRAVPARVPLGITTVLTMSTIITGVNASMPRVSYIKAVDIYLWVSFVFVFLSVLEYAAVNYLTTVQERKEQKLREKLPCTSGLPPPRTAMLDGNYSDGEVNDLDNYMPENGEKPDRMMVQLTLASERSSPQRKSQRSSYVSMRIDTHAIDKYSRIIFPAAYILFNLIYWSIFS
reported-metric: pIC50
Expect pIC50 as a plain number equal to -log10 of the molar concentration.

Query block: Report its pIC50 with human GABAρ1 (Homo sapiens) as the test system: NCCc1ccccc1 [β-PEA, 2-Phenylethylamine]
Result block: 2.75

* * *

target: UniProt H2KYN9; assay: cell-based; assay type: cell-based; settings: Table 1; read-out: LGC-53 EC50
Sequence (H2KYN9 entry or part of it): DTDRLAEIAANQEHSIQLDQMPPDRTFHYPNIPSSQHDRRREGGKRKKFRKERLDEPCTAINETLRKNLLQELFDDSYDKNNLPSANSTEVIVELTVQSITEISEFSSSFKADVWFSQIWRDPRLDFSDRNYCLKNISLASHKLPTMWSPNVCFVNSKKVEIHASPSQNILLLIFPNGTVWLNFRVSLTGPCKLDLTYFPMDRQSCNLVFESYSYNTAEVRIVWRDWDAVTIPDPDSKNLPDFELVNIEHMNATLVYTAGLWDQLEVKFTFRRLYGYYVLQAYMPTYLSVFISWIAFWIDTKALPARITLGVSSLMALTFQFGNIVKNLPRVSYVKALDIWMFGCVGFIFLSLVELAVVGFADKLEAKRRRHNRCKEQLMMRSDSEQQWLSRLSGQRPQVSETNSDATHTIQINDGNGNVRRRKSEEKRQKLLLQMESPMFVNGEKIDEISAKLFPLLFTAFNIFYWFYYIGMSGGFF
reported-metric: EC50 (µM)
Only the number, expressed in µM, is required.

Query block: Supply measured EC50 of NCCc1ccc(O)cc1 in your reply.
Result block: 2180
